Examples of compounds with documented IC50 follow.
# target-or-test-system: integrin αvβ3 (vitronectin receptor purified from the human placenta) (Homo sapiens, UniProt P05106+P06756)
# Construct: a vitronectin receptor (protein content: 118 μg/ml) purified from the human placenta
# Sequence (P06756 31-889 limits assumed): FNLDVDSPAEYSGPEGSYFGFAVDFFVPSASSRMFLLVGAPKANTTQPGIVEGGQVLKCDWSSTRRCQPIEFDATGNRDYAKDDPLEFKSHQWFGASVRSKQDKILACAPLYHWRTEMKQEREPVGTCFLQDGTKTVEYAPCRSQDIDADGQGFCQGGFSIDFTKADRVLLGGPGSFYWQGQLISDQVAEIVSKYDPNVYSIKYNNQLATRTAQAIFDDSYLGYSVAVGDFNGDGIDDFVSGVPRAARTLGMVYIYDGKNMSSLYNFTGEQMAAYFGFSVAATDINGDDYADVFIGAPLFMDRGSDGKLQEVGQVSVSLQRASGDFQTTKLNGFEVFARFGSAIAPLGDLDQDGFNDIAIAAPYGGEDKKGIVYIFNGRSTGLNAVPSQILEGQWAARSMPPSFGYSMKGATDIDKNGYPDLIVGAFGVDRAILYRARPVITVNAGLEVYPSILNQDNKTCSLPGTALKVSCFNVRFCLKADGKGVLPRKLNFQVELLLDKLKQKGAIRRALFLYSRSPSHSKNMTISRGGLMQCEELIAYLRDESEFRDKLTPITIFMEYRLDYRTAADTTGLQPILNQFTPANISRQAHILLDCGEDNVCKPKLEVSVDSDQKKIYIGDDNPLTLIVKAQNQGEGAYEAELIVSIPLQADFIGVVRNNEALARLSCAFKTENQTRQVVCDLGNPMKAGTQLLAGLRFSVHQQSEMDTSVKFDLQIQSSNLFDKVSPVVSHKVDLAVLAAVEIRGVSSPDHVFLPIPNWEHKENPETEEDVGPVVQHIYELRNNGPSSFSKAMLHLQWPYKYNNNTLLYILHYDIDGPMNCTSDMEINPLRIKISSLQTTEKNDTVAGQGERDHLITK
# Sequence (P06756 891-1048 limits assumed): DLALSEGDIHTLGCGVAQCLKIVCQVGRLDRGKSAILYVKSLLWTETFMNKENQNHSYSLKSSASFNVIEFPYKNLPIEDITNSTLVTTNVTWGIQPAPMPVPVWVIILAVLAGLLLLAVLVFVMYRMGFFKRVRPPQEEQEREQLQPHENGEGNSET
# Sequence (P05106 27-788): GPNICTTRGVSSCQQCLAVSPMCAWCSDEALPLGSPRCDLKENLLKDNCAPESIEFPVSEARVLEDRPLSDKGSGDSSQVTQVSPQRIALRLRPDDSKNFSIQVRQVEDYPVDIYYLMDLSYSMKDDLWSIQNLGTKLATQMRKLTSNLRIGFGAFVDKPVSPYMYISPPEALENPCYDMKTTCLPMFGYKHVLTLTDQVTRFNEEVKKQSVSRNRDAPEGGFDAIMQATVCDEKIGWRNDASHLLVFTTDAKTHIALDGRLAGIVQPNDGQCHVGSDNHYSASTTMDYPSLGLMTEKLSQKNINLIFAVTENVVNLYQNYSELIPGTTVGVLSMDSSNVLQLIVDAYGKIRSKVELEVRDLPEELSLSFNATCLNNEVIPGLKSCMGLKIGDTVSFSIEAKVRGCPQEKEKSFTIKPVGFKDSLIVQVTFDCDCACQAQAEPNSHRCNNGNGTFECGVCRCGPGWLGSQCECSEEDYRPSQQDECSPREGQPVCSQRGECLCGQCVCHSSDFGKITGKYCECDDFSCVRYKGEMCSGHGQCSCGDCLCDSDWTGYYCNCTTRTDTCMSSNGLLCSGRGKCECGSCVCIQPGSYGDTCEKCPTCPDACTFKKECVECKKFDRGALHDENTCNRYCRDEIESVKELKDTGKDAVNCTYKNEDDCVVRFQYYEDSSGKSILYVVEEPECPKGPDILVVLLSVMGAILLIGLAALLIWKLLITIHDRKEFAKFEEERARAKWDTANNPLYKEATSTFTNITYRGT
# assay-info: αvβ3 binding assay (vitronectin-vitronectin receptor binding assay)
# condition-summary: vitronectin binding to human placenta vitronectin receptor; read-out: integrin αvβ3 antagonistic activity, IC50 value

smiles-input | IC50
COc1cc(C(=O)NC[C@H](NS(=O)(=O)c2ccccc2)C(=O)O)ccc1N1CCC(NC2=NCCCN2)CC1 | ≤ 1 nM
Nc1ccc(S(=O)(=O)N[C@@H](CNC(=O)c2ccc(N3CCC(NC4=NCCCN4)CC3)c(F)c2)C(=O)O)cc1 | ≤ 1 nM

IC50 lookup needed for "CCCCS(=O)(=O)N[C@@H](CNC(=O)c1ccc(N2CCC(Nc3nc4ccccc4[nH]3)CC2)cc1)C(=O)O" , thanks. ≤ 1 nM
